Target: DRB1*1302 (Homo sapiens, UniProt P01903+P01911, A100E/A169T/K41T/L162R/M171V/P40S/Q125H/Q178H/Q39Y/Q99D/R42S/S66N/T262R/V115G/W38E/Y61H)
Sequence (P01903 26-254 limits assumed, other chains not shown): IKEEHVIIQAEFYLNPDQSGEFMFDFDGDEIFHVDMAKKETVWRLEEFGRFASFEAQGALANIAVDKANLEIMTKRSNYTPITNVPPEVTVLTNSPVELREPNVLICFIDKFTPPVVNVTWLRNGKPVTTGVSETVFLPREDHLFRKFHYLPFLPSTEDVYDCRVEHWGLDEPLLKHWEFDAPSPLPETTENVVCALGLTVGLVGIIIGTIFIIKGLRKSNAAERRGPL
Assay: biochemical
Format: binding
Settings: read-out: IC50 nM to purified HLA DRB1*1302
Answer each item with its documented IC50.
Write the value in nM as a bare number.

Suppose we examine the compound CC[C@H](C)[C@H](NC(=O)[C@H](Cc1ccc(O)cc1)NC(=O)[C@@H](NC(=O)[C@@H](NC(=O)[C@@H]1CCCN1C(=O)[C@H](CC(N)=O)NC(=O)[C@H](CCC(N)=O)NC(=O)[C@H](Cc1ccc(O)cc1)NC(=O)[C@H](CC(C)C)NC(=O)[C@H](CCCCN)NC(=O)[C@@H](NC(=O)[C@@H](N)CCC(N)=O)[C@@H](C)O)[C@@H](C)O)[C@@H](C)O)C(=O)N[C@@H](CO)C(=O)N[C@H](C(=O)NCC(=O)N[C@H](C(=O)O)[C@@H](C)O)C(C)C ; what IC50 value has been reported?
18

Same for CC[C@H](C)[C@H](NC(=O)[C@H](CC(C)C)NC(=O)[C@H](CCCNC(=N)N)NC(=O)CNC(=O)[C@@H](N)CCC(=O)O)C(=O)N[C@@H](CCC(N)=O)C(=O)N[C@@H](CC(N)=O)C(=O)N[C@@H](CO)C(=O)N[C@H](C(=O)N[C@H](C(=O)N[C@H](C(=O)N[C@@H](CCC(=O)O)C(=O)N[C@@H](CCCNC(=N)N)C(=O)N[C@@H](CCSC)C(=O)N[C@H](C(=O)O)C(C)C)[C@@H](C)CC)[C@@H](C)O)[C@@H](C)CC
55

Same for CSCC[C@H](NC(=O)[C@H](CC(C)C)NC(=O)[C@@H](NC(=O)[C@H](CCCNC(=N)N)NC(=O)[C@H](Cc1c[nH]cn1)NC(=O)[C@@H]1CCCN1C(=O)[C@H](CO)NC(=O)[C@H](CCCNC(=N)N)NC(=O)[C@H](CC(=O)O)NC(=O)[C@H](CCCCN)NC(=O)[C@@H](NC(=O)[C@@H](NC(=O)CNC(=O)[C@@H](N)CC(N)=O)[C@@H](C)O)C(C)C)[C@@H](C)O)C(=O)N[C@@H](CO)C(=O)O
7930

----------
Molecular target: DRB1*0301 (Homo sapiens, UniProt P01903+P01911, A100K/A102G/A103R/A169T/F55Y/I96L/K41T/L162R/M171V/P40S/Q125H/Q178H/Q39Y/R42S/S66N/T106N/T262R/W38E/Y61H)
Sequence (P01903 26-254, other chains not shown): as the sequence (P01903 26-254 limits assumed, other chains not shown) above
Assay: biochemical
Answer each item with its documented IC50.
Write the value in nM as a bare number.

Suppose we examine the compound CC[C@H](C)[C@H](NC(=O)[C@H](CCCNC(=N)N)NC(=O)[C@H](CCCNC(=N)N)NC(=O)[C@@H](NC(=O)[C@H](CCC(=O)O)NC(=O)[C@H](CCC(=O)O)NC(=O)[C@H](CCCCN)NC(=O)[C@H](CC(=O)O)NC(=O)[C@H](Cc1ccc(O)cc1)NC(=O)[C@H](CC(C)C)NC(=O)[C@@H](NC(=O)[C@H](CC(C)C)NC(=O)[C@H](CCC(=O)O)NC(=O)[C@@H](N)CCCNC(=N)N)[C@@H](C)CC)[C@@H](C)CC)C(=O)N[C@@H](Cc1c[nH]c2ccccc12)C(=O)O ; what IC50 value has been reported?
59

Same for CC(C)C[C@H](NC(=O)[C@H](CO)NC(=O)[C@H](CCCNC(=N)N)NC(=O)[C@H](CC(C)C)NC(=O)[C@H](CCC(=O)O)NC(=O)[C@@H]1CCCN1C(=O)[C@H](CCC(=O)O)NC(=O)[C@H](CC(=O)O)NC(=O)[C@H](CO)NC(=O)[C@H](CC(=O)O)NC(=O)[C@H](Cc1ccc(O)cc1)NC(=O)[C@H](CCC(N)=O)NC(=O)[C@H](CCCCN)NC(=O)[C@@H](N)CC(C)C)C(=O)N[C@@H](CO)C(=O)O
88

Same for CC[C@H](C)[C@H](NC(=O)[C@H](CC(C)C)NC(=O)[C@@H](N)Cc1ccccc1)C(=O)N[C@@H](CC(C)C)C(=O)NCC(=O)N[C@@H](CCCCN)C(=O)N[C@@H](CCC(=O)O)C(=O)N[C@@H](CC(=O)O)C(=O)N[C@@H](CCCNC(=N)N)C(=O)N[C@@H](CCCNC(=N)N)C(=O)N[C@@H](Cc1ccc(O)cc1)C(=O)NCC(=O)N1CCC[C@H]1C(=O)N[C@@H](C)C(=O)N[C@@H](CC(C)C)C(=O)O
565

Same for CC(C)C[C@H](NC(=O)[C@H](CCCCN)NC(=O)[C@H](CCCNC(=N)N)NC(=O)[C@H](CO)NC(=O)[C@H](CCC(=O)O)NC(=O)[C@H](C)NC(=O)[C@H](CO)NC(=O)[C@H](Cc1ccccc1)NC(=O)CNC(=O)[C@H](CCC(=O)O)NC(=O)[C@@H](N)CC(C)C)C(=O)N[C@@H](CC(C)C)C(=O)N[C@@H](CC(C)C)C(=O)N[C@H](C(=O)N[C@H](C(=O)O)C(C)C)C(C)C
661

Same for CC[C@H](C)[C@H](NC(=O)[C@H](CCSC)NC(=O)[C@H](CS)NC(=O)[C@H](CC(=O)O)NC(=O)[C@H](CCC(=O)O)NC(=O)[C@H](CCC(N)=O)NC(=O)[C@H](CO)NC(=O)[C@H](Cc1ccccc1)NC(=O)[C@@H](NC(=O)[C@H](CCSC)NC(=O)[C@H](C)N)C(C)C)C(=O)N[C@@H](CCCCN)C(=O)N[C@@H](C)C(=O)N[C@H](C(=O)N[C@@H](CCCNC(=N)N)C(=O)O)C(C)C
718

Same for CC(C)C[C@H](NC(=O)CNC(=O)[C@@H](NC(=O)[C@H](C)NC(=O)[C@H](CC(C)C)NC(=O)[C@@H](NC(=O)[C@H](CC(C)C)NC(=O)[C@H](CCCNC(=N)N)NC(=O)[C@H](CC(N)=O)NC(=O)[C@H](CO)NC(=O)[C@H](CCCCN)NC(=O)[C@@H](NC(=O)[C@H](Cc1ccc(O)cc1)NC(=O)[C@H](CCCCN)NC(=O)[C@@H]1CCCN1C(=O)[C@@H](N)CS)C(C)C)C(C)C)[C@@H](C)O)C(=O)O
2920

Same for CC[C@H](C)[C@H](NC(=O)CNC(=O)[C@@H]1CCCN1C(=O)[C@H](Cc1c[nH]cn1)NC(=O)[C@H](CO)NC(=O)[C@H](CCC(=O)O)NC(=O)[C@H](CCC(=O)O)NC(=O)[C@H](CC(C)C)NC(=O)[C@H](Cc1ccccc1)NC(=O)[C@H](C)NC(=O)[C@H](CCSC)NC(=O)[C@H](C)N)C(=O)N[C@@H](Cc1ccccc1)C(=O)N[C@@H](CCC(=O)O)C(=O)N[C@@H](CC(N)=O)C(=O)O
400

Same for CC[C@H](C)[C@H](NC(=O)[C@H](CC(C)C)NC(=O)[C@H](CS)NC(=O)[C@H](CCC(=O)O)NC(=O)[C@@H](N)CCC(=O)O)C(=O)N[C@@H](CC(N)=O)C(=O)N[C@@H](CC(=O)O)C(=O)N1CCC[C@H]1C(=O)N[C@@H](Cc1c[nH]c2ccccc12)C(=O)N[C@H](C(=O)N[C@@H](CC(C)C)C(=O)N[C@@H](CC(C)C)C(=O)N[C@@H](CC(N)=O)C(=O)N[C@@H](C)C(=O)N[C@@H](CO)C(=O)O)C(C)C
618

Same for CC(C)C[C@H](NC(=O)[C@H](CO)NC(=O)[C@H](CCCCN)NC(=O)[C@H](CCC(N)=O)NC(=O)[C@H](CC(=O)O)NC(=O)[C@H](CCCNC(=N)N)NC(=O)[C@H](CCCNC(=N)N)NC(=O)[C@H](CC(C)C)NC(=O)[C@H](CCCNC(=N)N)NC(=O)[C@H](CC(=O)O)NC(=O)[C@@H](N)CC(C)C)C(=O)N[C@@H](CCCNC(=N)N)C(=O)NCC(=O)N[C@@H](CCCNC(=N)N)C(=O)NCC(=O)O
83

Same for CC[C@H](C)[C@H](NC(=O)[C@@H](N)Cc1ccc(O)cc1)C(=O)N[C@@H](CCC(N)=O)C(=O)N[C@@H](CCSC)C(=O)N[C@@H](CS)C(=O)N[C@H](C(=O)N[C@@H](CCC(=O)O)C(=O)N[C@@H](CC(C)C)C(=O)N[C@@H](CCCCN)C(=O)N[C@@H](CC(C)C)C(=O)N[C@@H](CO)C(=O)N[C@@H](CC(=O)O)C(=O)N[C@@H](Cc1ccc(O)cc1)C(=O)N[C@@H](CCC(=O)O)C(=O)NCC(=O)O)[C@@H](C)O
368
